# maps each entry to its AUC(0-inf)
- assayProtocol: Pharmacokinetic study in rats after oral administration of CUT and MP-NPs, plasma by UHPLC-MS/MS
- details: male, Sprague Dawley, in vivo, MP-NPs group, oral MP-NPs(PVP-K30) 0.06 g per rat, n = 6, mean ± SD
# number only, unit ng·h/mL dropped from output

INSERT INTO measurements (chemicalstructure, readoutvalue) VALUES
  ('CC(=O)OC(C)(C)/C=C/C(=O)[C@](C)(O)[C@H]1[C@H](O)C[C@@]2(C)[C@@H]3CC=C4[C@@H](C=C(O)C(=O)C4(C)C)[C@]3(C)C(=O)C[C@]12C', 973);

Next, consider the following compound.
# query: AUC(0-inf) of entry `CC(C)(O)/C=C/C(=O)[C@](C)(O)[C@H]1[C@H](O)C[C@@]2(C)[C@@H]3CC=C4[C@@H](C[C@H](O)C(=O)C4(C)C)[C@]3(C)C(=O)C[C@]12C`
1480

----------
- assayProtocol: Pharmacokinetic study in rats after oral administration of CUT and MP-NPs, plasma by UHPLC-MS/MS
- details: male, Sprague Dawley, in vivo, MP-NPs group, oral MP-NPs(PVP-K30) 0.06 g per rat, n = 6, mean ± SD
measuredProperty: Tmax (h)
Please give a number only; it is taken to be in h.

INSERT INTO measurements (chemicalstructure, measuredproperty, readoutvalue) VALUES
  ('CC(=O)OC(C)(C)/C=C/C(=O)[C@](C)(O)[C@H]1[C@H](O)C[C@@]2(C)[C@@H]3CC=C4[C@@H](C=C(O)C(=O)C4(C)C)[C@]3(C)C(=O)C[C@]12C', 'Tmax', 1.67);

Now for the compound whose Tmax we want.
Bench note: what Tmax did `CC(C)(O)/C=C/C(=O)[C@](C)(O)[C@H]1[C@H](O)C[C@@]2(C)[C@@H]3CC=C4[C@@H](C[C@H](O)C(=O)C4(C)C)[C@]3(C)C(=O)C[C@]12C` show?
1.75

----------
- assayProtocol: Pharmacokinetic study in rats after oral administration of CUT and MP-NPs, plasma by UHPLC-MS/MS
- details: male, Sprague Dawley, in vivo, CUT group, oral cucurbitacin tablet 0.03 g per rat, n = 6, mean ± SD
Collected Cmax values appear next to each entry.
Please respond with the number in ng/mL and leave the unit unwritten.

What value of Cmax has been reported for the following molecule? `CC(=O)OC(C)(C)/C=C/C(=O)[C@](C)(O)[C@H]1[C@H](O)C[C@@]2(C)[C@@H]3CC=C4[C@@H](C=C(O)C(=O)C4(C)C)[C@]3(C)C(=O)C[C@]12C`
166

# query: Cmax of entry `CC(C)(O)/C=C/C(=O)[C@](C)(O)[C@H]1[C@H](O)C[C@@]2(C)[C@@H]3CC=C4[C@@H](C[C@H](O)C(=O)C4(C)C)[C@]3(C)C(=O)C[C@]12C`
339

----------
Below, each entry is listed alongside its reported AUC(0-t).
- assayProtocol: Pharmacokinetic study in rats after oral administration of CUT and MP-NPs, plasma by UHPLC-MS/MS
- details: male, Sprague Dawley, in vivo, MP-NPs group, oral MP-NPs(PVP-K30) 0.06 g per rat, n = 6, mean ± SD
Reply with just the number (in ng·h/mL).

INSERT INTO assay_data (molecule, readoutvalue) VALUES
  ('CC(C)(O)/C=C/C(=O)[C@](C)(O)[C@H]1[C@H](O)C[C@@]2(C)[C@@H]3CC=C4[C@@H](C[C@H](O)C(=O)C4(C)C)[C@]3(C)C(=O)C[C@]12C [CuD, cucurbitacin D]', 1260);

Next, consider the following molecule.
# query: AUC(0-t) of entry CC(=O)OC(C)(C)/C=C/C(=O)[C@](C)(O)[C@H]1[C@H](O)C[C@@]2(C)[C@@H]3CC=C4[C@@H](C=C(O)C(=O)C4(C)C)[C@]3(C)C(=O)C[C@]12C [CuE, cucurbitacin E]
752

----------
Recorded Tmax by entry
- assayProtocol: Pharmacokinetic study in rats after oral administration of CUT and MP-NPs, plasma by UHPLC-MS/MS
- details: male, Sprague Dawley, in vivo, CUT group, oral cucurbitacin tablet 0.03 g per rat, n = 6, mean ± SD
Kindly provide the numeric value in h only, without the unit symbol.

INSERT INTO results (compound, measuredproperty, quantityunit, readoutvalue) VALUES
  ('CC(=O)OC(C)(C)/C=C/C(=O)[C@](C)(O)[C@H]1[C@H](O)C[C@@]2(C)[C@@H]3CC=C4[C@@H](C=C(O)C(=O)C4(C)C)[C@]3(C)C(=O)C[C@]12C [CuE, cucurbitacin E]', 'Tmax', 'h', 2.25);

Note: attention shifts to another entry.
Query (compound): CC(C)(O)/C=C/C(=O)[C@](C)(O)[C@H]1[C@H](O)C[C@@]2(C)[C@@H]3CC=C4[C@@H](C[C@H](O)C(=O)C4(C)C)[C@]3(C)C(=O)C[C@]12C [CuD, cucurbitacin D] ; field requested: Tmax
1.83

----------
- assayProtocol: Pharmacokinetic study in rats after oral administration of CUT and MP-NPs, plasma by UHPLC-MS/MS
- details: male, Sprague Dawley, in vivo, MP-NPs group, oral MP-NPs(PVP-K30) 0.06 g per rat, n = 6, mean ± SD
measuredProperty: Cmax (ng/mL)
I only need the number, in ng/mL, no unit after it.

INSERT INTO assay_data (chemicalstructure, measuredproperty, quantityunit, readoutvalue) VALUES
  ('CC(=O)OC(C)(C)/C=C/C(=O)[C@](C)(O)[C@H]1[C@H](O)C[C@@]2(C)[C@@H]3CC=C4[C@@H](C=C(O)C(=O)C4(C)C)[C@]3(C)C(=O)C[C@]12C', 'Cmax', 'ng/mL', 236);

Now look at this entry.
Fill in the blank: the reported Cmax of `CC(C)(O)/C=C/C(=O)[C@](C)(O)[C@H]1[C@H](O)C[C@@]2(C)[C@@H]3CC=C4[C@@H](C[C@H](O)C(=O)C4(C)C)[C@]3(C)C(=O)C[C@]12C` is ____.
365

Values from paper PMC12457114
